# assay_system: MS2 coat protein, dlFG mutant (Escherichia phage MS2, UniProt P03612, del68-81insG)
# experiment_summary: 4 mM Mg2+; no ligand; RNA-MaP array; 100 mM Tris-HCl pH 7.5, 80 mM KCl, 4 mM MgCl2, 0.1 mg/mL BSA, 1 mM DTT, 0.01 mg/mL yeast tRNA, 0.01% Tween-20; protein 1.5 nM to 3 uM; 37 C (Table S3)
# condition_summary: chain copies: 2; label: tethered by stalled RNA polymerase
# log10(Kd) per record follows
Answers are given as log10 of Kd in nM.

Worked examples follow.
binder: Eterna 7670643 (Exclusion - Theophylline B) (ssRNA) RNA: UGACAUUGCUCAGAUACCAGACGUGAGCAUCAGCCAUGUGCCAACAAGUACAAAAUAAAUGUCCCUUGGCAGCUGAGCAAUGUCU
log10(Kd): 1.22

binder: Eterna 12408 (Exclusion 4) (ssRNA) RNA: CAUUUGUGAGGAUAUCAGGUGUGCUAGCGUACUGGUACAUCUGAGAAGGCACAUGAGGAUCACCCAUGUUUCUU
log10(Kd): 1.20

binder: Eterna 12520 (Exclusion 2) (ssRNA) RNA: AAACAGGGAGGAUAUACAUAGAUCCUCUAACCUAAUUGGUCACAUGAGGAUCACCCAUGUAGAAGGCCCUUAGG
log10(Kd): 1.07

binder: Eterna 14907 (Exclusion 2) (ssRNA) RNA: GUGUAGUUAGGAUAUGCUGGAAUCUAGCGAAGCUAGGUUCCACAUGAGGAUCACCCAUGUAGAAGGGACUACAC
log10(Kd): 2.40

binder: Eterna 12517 (Exclusion 2) (ssRNA) RNA: AAUGGCUGAGGAUAUACACUCACGUCUAAAAGGUUCAAAUGACAUGAGGAUCACCCAUGUAGAAGGCAGCCCGA
log10(Kd): 2.01

We now examine a further binder.
Kindly indicate its recorded log10(Kd). Item: Eterna 15907 (Sensor v3, turn-off variant 2) (ssRNA) RNA: AGUAACCGUCACGAAAGUGAUGGUUACGCAAGUAAAUGUACAUGAGGAUCACCCAUGUCCUCAUUUGCUCGUCUUAU
2.31
